TARGET: Acetylcholinesterase (Electrophorus electricus)
ASSAY INFO: Prodrug activation assessed as Electrophorus electricus Type V-S acetylcholinesterase mediated 3,4-diaminopyridine release measured 3 hrs post enzymatic hydrolysis by reverse phase HPLC
# if value of Drug metabolism reaches 4 µM, tag met; if it stays below, tag not met

Observe how each entry below is paired with its result.
Incoming: Does the molecule Nc1cnccc1NC(=O)OCc1ccc(OC(=O)C2CCCC2)cc1 have recorded Drug metabolism that is 4 µM or more?
Outgoing: met

Incoming: Follow-up item: COC(=O)Nc1cnccc1N
Outgoing: not met

New cases:
Incoming: Does the molecule COC(=O)Nc1ccncc1N have recorded Drug metabolism that is 4 µM or more?
Outgoing: not met

Incoming: Follow-up item: Nc1cnccc1NC(=O)c1ccccc1
Outgoing: not met

Incoming: Follow-up item: CC(C)C(=O)OCc1ccccc1COC(=O)Nc1ccncc1N
Outgoing: met

###

TARGET: Butyrylcholinesterase (Equus caballus, UniProt Q9N1N9)
Sequence (Q9N1N9 whole entry): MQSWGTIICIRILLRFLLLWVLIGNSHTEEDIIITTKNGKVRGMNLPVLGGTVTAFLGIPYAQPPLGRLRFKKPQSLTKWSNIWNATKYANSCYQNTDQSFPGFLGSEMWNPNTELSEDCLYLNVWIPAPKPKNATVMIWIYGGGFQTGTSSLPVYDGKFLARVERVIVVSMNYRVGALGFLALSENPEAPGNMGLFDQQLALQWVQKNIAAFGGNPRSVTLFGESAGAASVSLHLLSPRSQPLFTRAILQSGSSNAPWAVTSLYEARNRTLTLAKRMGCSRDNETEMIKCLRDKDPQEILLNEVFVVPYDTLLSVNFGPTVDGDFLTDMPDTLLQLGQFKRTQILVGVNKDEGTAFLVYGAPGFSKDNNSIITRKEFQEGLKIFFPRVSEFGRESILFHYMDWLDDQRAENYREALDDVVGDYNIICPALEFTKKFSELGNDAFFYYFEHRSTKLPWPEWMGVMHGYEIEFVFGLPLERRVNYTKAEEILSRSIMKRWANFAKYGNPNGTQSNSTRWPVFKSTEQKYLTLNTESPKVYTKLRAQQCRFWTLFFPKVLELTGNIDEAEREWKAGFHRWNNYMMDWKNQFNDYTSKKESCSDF
ASSAY INFO: Inhibition of equine serum BChE using butyrylthiocholine iodide as a substrate by spectrophotometric Ellman's assay
Measured pKi of individual entries
Answer as the number alone; pKi is minus log10 of concentration in mol/L.

Incoming: Look at this compound and give its reported pKi. CC(C)C(=O)Oc1ccc(COC(=O)Nc2ccncc2N)cc1
Outgoing: 4.38

Incoming: Follow-up item: CCC(=O)Oc1ccc(COC(=O)Nc2ccncc2N)cc1
Outgoing: 4.60

Incoming: Follow-up item: Nc1cnccc1NC(=O)OCc1ccc(OC(=O)C2CCCC2)cc1
Outgoing: 4.43

Incoming: Follow-up item: CC(C)OC(=O)CCC(=O)Nc1ccncc1N
Outgoing: 4.21

Incoming: Follow-up item: CC(=O)Nc1ccncc1N
Outgoing: 3.76

Incoming: Follow-up item: Nc1cnccc1NC(=O)OCc1ccc(OC(=O)Cc2ccccc2)cc1
Outgoing: 4.51

Incoming: Follow-up item: CC(C)CC(=O)Oc1ccc(COC(=O)Nc2ccncc2N)cc1
Outgoing: 4.42

Incoming: Follow-up item: CC(=O)Oc1ccc(COC(=O)Nc2ccncc2N)cc1
Outgoing: 5.80

New cases:
Incoming: Look at this compound and give its reported pKi. CCCC(=O)Oc1ccc(COC(=O)Nc2ccncc2N)cc1
Outgoing: 4.84

###

Measured Drug metabolism of individual entries
TARGET: UniProtKB Q9N1N9
ASSAY INFO: Prodrug activation assessed as equine serum BChE-mediated 3,4-diaminopyridine release measured 3 hrs post enzymatic hydrolysis by reverse phase HPLC
COND: horse
Give just the numeric value; µM need not be written.

Incoming: Look at this compound and give its reported Drug metabolism. Nc1cnccc1NC(=O)c1ccccc1
Outgoing: 0

Incoming: Follow-up item: CCCC(=O)Oc1ccc(COC(=O)Nc2ccncc2N)cc1
Outgoing: 71

Incoming: Follow-up item: COC(=O)Nc1ccncc1N
Outgoing: 0

Incoming: Follow-up item: COC(=O)Nc1cnccc1N
Outgoing: 0

New cases:
Incoming: Look at this compound and give its reported Drug metabolism. Nc1cnccc1NC(=O)OCc1ccc(OC(=O)C2CCCC2)cc1
Outgoing: 79

###

TARGET: Acetylcholinesterase (Electrophorus electricus, UniProt O42275)
Sequence (O42275 whole entry): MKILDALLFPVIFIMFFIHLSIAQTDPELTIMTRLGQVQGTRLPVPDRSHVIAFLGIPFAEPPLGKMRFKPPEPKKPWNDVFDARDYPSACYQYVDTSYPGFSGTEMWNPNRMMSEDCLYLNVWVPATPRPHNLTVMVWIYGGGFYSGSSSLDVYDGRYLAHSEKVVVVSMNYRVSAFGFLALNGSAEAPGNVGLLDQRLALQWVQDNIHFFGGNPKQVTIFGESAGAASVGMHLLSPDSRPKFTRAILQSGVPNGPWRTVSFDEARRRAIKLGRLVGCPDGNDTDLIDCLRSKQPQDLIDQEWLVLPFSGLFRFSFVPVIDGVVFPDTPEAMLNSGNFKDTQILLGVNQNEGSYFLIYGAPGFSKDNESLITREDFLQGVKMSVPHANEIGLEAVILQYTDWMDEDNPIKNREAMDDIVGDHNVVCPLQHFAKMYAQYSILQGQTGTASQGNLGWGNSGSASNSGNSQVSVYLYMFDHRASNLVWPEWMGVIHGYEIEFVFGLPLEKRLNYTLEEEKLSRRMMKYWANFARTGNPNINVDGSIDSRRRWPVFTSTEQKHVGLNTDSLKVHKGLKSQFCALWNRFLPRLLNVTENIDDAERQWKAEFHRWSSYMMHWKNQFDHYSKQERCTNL
ASSAY INFO: Prodrug activation assessed as Electrophorus electricus Type V-S acetylcholinesterase mediated 3,4-diaminopyridine release measured 3 hrs post enzymatic hydrolysis by reverse phase HPLC
Measured Drug metabolism of individual entries

Some compounds with recorded Drug metabolism:
Incoming: Look at this compound and give its reported Drug metabolism. CC(=O)Nc1ccncc1N
Outgoing: 0 µM

Incoming: Follow-up item: Nc1cnccc1NC(=O)OCc1ccc(OC(=O)Cc2ccccc2)cc1
Outgoing: 0 µM

Incoming: Follow-up item: CC(C)OC(=O)CCC(=O)Nc1ccncc1N
Outgoing: 3.4 µM

Incoming: Follow-up item: CC(C)C(=O)OCCOC(=O)Nc1ccncc1N
Outgoing: 0 µM

Incoming: Follow-up item: COc1cccc(C(=O)Oc2ccc(COC(=O)Nc3ccncc3N)cc2)c1
Outgoing: 2 µM

Consider the record given below.
Incoming: Look at this compound and give its reported Drug metabolism. CC(C)C(=O)Oc1ccc(COC(=O)Nc2ccncc2N)cc1
Outgoing: 105 µM

###

TARGET: Butyrylcholinesterase (Equus caballus, UniProt Q9N1N9)
ASSAY INFO: Inhibition of equine serum BChE using butyrylthiocholine iodide as a substrate by spectrophotometric Ellman's assay
VALUE KIND: IC50 (µM)
Give just the numeric value; µM need not be written.

Incoming: Look at this compound and give its reported IC50. Nc1cnccc1NC(=O)OCc1ccc(OC(=O)C2CCCC2)cc1
Outgoing: 77.5

New cases:
Incoming: Look at this compound and give its reported IC50. CC(C)OC(=O)CCC(=O)Nc1ccncc1N
Outgoing: 97.4

Incoming: Follow-up item: CC(C)CC(=O)Oc1ccc(COC(=O)Nc2ccncc2N)cc1
Outgoing: 87.7

###

Measured Drug metabolism of individual entries
TARGET: Acetylcholinesterase (Electrophorus electricus, UniProt O42275)
ASSAY INFO: Prodrug activation assessed as Electrophorus electricus Type V-S acetylcholinesterase mediated 3,4-diaminopyridine release measured 3 hrs post enzymatic hydrolysis by reverse phase HPLC
Give just the numeric value; µM need not be written.

Some molecules with recorded Drug metabolism:
Incoming: Look at this molecule and give its reported Drug metabolism. Nc1cnccc1NC(=O)C1CCCC1
Outgoing: 4

Incoming: Follow-up item: COC(=O)Nc1ccncc1NC(=O)OC
Outgoing: 0

New cases:
Incoming: Look at this molecule and give its reported Drug metabolism. CC(C)CC(=O)Oc1ccc(COC(=O)Nc2ccncc2N)cc1
Outgoing: 12

Incoming: Follow-up item: CC(=O)Oc1ccc(COC(=O)Nc2ccncc2N)cc1
Outgoing: 0

Incoming: Follow-up item: Nc1cnccc1NC(=O)OCc1ccc(OC(=O)c2ccccc2)cc1
Outgoing: 1

Incoming: Follow-up item: CC(=O)Nc1ccncc1NC(C)=O
Outgoing: 0

Incoming: Follow-up item: CCC(=O)Oc1ccc(COC(=O)Nc2ccncc2N)cc1
Outgoing: 145

Incoming: Follow-up item: CCCC(=O)Oc1ccc(COC(=O)Nc2ccncc2N)cc1
Outgoing: 10

###

TARGET: UniProtKB Q9N1N9
ASSAY INFO: Prodrug activation assessed as equine serum BChE-mediated 3,4-diaminopyridine release measured 3 hrs post enzymatic hydrolysis by reverse phase HPLC
COND: horse
VALUE KIND: Drug metabolism (µM)
Give just the numeric value; µM need not be written.

Incoming: Look at this molecule and give its reported Drug metabolism. CC(=O)Nc1ccncc1NC(C)=O
Outgoing: 0

New cases:
Incoming: Look at this molecule and give its reported Drug metabolism. Nc1cnccc1NC(=O)C1CCCC1
Outgoing: 8

Incoming: Follow-up item: COC(=O)Nc1ccncc1NC(=O)OC
Outgoing: 0

Incoming: Follow-up item: CC(C)C(=O)Oc1ccc(COC(=O)Nc2ccncc2N)cc1
Outgoing: 82

Incoming: Follow-up item: CC(C)OC(=O)CCC(=O)Nc1ccncc1N
Outgoing: 5.8

Incoming: Follow-up item: CC(=O)Nc1ccncc1N
Outgoing: 0

Incoming: Follow-up item: CC(C)C(=O)OCCOC(=O)Nc1ccncc1N
Outgoing: 4

Incoming: Follow-up item: Nc1cnccc1NC(=O)OCc1ccc(OC(=O)Cc2ccccc2)cc1
Outgoing: 0

Incoming: Follow-up item: CC(C)C(=O)OCc1ccccc1COC(=O)Nc1ccncc1N
Outgoing: 5

###

TARGET: Butyrylcholinesterase (Equus caballus)
ASSAY INFO: Prodrug activation assessed as equine serum BChE-mediated 3,4-diaminopyridine release measured 3 hrs post enzymatic hydrolysis by reverse phase HPLC
COND: horse
VALUE KIND: Drug metabolism (µM)
Give just the numeric value; µM need not be written.

Incoming: Look at this compound and give its reported Drug metabolism. CC(C)CC(=O)Oc1ccc(COC(=O)Nc2ccncc2N)cc1
Outgoing: 83

Incoming: Follow-up item: CC(=O)Oc1ccc(COC(=O)Nc2ccncc2N)cc1
Outgoing: 0

Incoming: Follow-up item: CCC(=O)Oc1ccc(COC(=O)Nc2ccncc2N)cc1
Outgoing: 82

Incoming: Follow-up item: Nc1cnccc1NC(=O)OCc1ccc(OC(=O)c2ccccc2)cc1
Outgoing: 0

Consider the record given below.
Incoming: Look at this compound and give its reported Drug metabolism. COc1cccc(C(=O)Oc2ccc(COC(=O)Nc3ccncc3N)cc2)c1
Outgoing: 0
